# Tested on: UGT
# protocolDescription: Drug metabolism in rat liver S9 fraction assessed as UGT-mediated metabolism by measuring parent compound remaining at 5 uM measured after 15 mins in presence of UDPGA by UPLC analysis
# Assay type: ADME, subcellular
# experimentalConditions: read-out: Stability
readoutType: remaining at 0.25 h, 5 µM (%)

> print(dat)
                            structuresmiles  measurementtarget                readouttype  observedvalue
1  Nc1ncnc2c1c(-c1ccccn1)cn2[C@@H]1O[C@H](CO)[C@@H](O)[C@H]1O                UGT  remaining at 0.25 h, 5 µM            115

* * *

# measurementTarget: CYP450 (Homo sapiens, UniProt P04798+P05177+P05181+P08684+P10632+P10635+P11509+P11712+P13584+P20813+P20815+P20853+P24462+P24903+P33260+P33261+P51589+P78329+P98187+Q02928+Q08477+Q16678+Q16696+Q5TCH4+Q6VVX0+Q7Z449+Q8TAV3+Q96SQ9+Q9HB55)
# protocolDescription: Drug metabolism in human liver S9 fraction assessed as CYP450-mediated metabolism by measuring parent compound remaining at 5 uM measured after 30 mins in presence of NADPH by UPLC analysis
# Assay type: ADME, subcellular
# experimentalConditions: read-out: Stability
readoutType: remaining at 0.5 h, 5 µM (%)

> print(dat)
                            structuresmiles  observedvalue
1  Nc1ncnc2c1c(-c1ccccn1)cn2[C@@H]1O[C@H](CO)[C@@H](O)[C@H]1O            102

* * *

# measurementTarget: CYP450 (Homo sapiens, UniProt P04798+P05177+P05181+P08684+P10632+P10635+P11509+P11712+P13584+P20813+P20815+P20853+P24462+P24903+P33260+P33261+P51589+P78329+P98187+Q02928+Q08477+Q16678+Q16696+Q5TCH4+Q6VVX0+Q7Z449+Q8TAV3+Q96SQ9+Q9HB55)
# protocolDescription: Drug metabolism in human liver S9 fraction assessed as CYP450-mediated metabolism by measuring parent compound remaining at 5 uM measured after 60 mins in presence of NADPH by UPLC analysis
# Type: ADME, subcellular
# experimentalConditions: read-out: Stability
readoutType: remaining at 1 h, 5 µM (%)

> print(dat)
                            structuresmiles  unitdescriptor  observedvalue
1  Nc1ncnc2c1c(-c1ccccn1)cn2[C@@H]1O[C@H](CO)[C@@H](O)[C@H]1O               %             82

* * *

# measurementTarget: CYP450 (Homo sapiens, UniProt P04798+P05177+P05181+P08684+P10632+P10635+P11509+P11712+P13584+P20813+P20815+P20853+P24462+P24903+P33260+P33261+P51589+P78329+P98187+Q02928+Q08477+Q16678+Q16696+Q5TCH4+Q6VVX0+Q7Z449+Q8TAV3+Q96SQ9+Q9HB55)
# protocolDescription: Drug metabolism in human liver S9 fraction assessed as CYP450-mediated metabolism by measuring parent compound remaining at 5 uM measured immediately in presence of NADPH by UPLC analysis
# Assay type: ADME, subcellular
# experimentalConditions: read-out: Stability
readoutType: remaining at 0 min, 5 µM (%)

> print(dat)
                            structuresmiles  observedvalue
1  Nc1ncnc2c1c(-c1ccccn1)cn2[C@@H]1O[C@H](CO)[C@@H](O)[C@H]1O            100

* * *

# Tested on: CYP450
# protocolDescription: Drug metabolism in rat liver S9 fraction assessed as CYP450-mediated metabolism by measuring parent compound remaining at 5 uM measured after 15 mins in presence of NADPH by UPLC analysis
# Type: ADME, subcellular
# experimentalConditions: read-out: Stability
readoutType: remaining at 0.25 h, 5 µM

> print(dat)
                            structuresmiles  observedvalue
1  Nc1ncnc2c1c(-c1ccccn1)cn2[C@@H]1O[C@H](CO)[C@@H](O)[C@H]1O            89%

* * *

# protocolDescription: Selectivity index, ratio of EC50 for human MRC5 cells to EC50 for Trypanosoma brucei rhodesiense STIB-900
# Assay type: toxicity
# experimentalConditions: read-out: Ratio EC50
readoutType: selectivity ratio

compound	readoutType	op	observedValue
Nc1ncnc2c1c(-c1ccc(F)cc1)cn2[C@@H]1O[C@H](CO)[C@@H](O)[C@H]1O	selectivity ratio	>	4.4
Cc1ccc(C(=O)Nc2ccc(S(=O)(=O)O)c3cc(S(=O)(=O)O)cc(S(=O)(=O)O)c23)cc1NC(=O)c1cccc(NC(=O)Nc2cccc(C(=O)Nc3cc(C(=O)Nc4ccc(S(=O)(=O)O)c5cc(S(=O)(=O)O)cc(S(=O)(=O)O)c45)ccc3C)c2)c1 [SURAMIN]	selectivity ratio	>	1600
Nc1ncnc2c1c(-c1cccc(Cl)n1)cn2[C@@H]1O[C@H](CO)[C@@H](O)[C@H]1O	selectivity ratio	>	103
Nc1ncnc2c1c(-c1ccccn1)cn2[C@@H]1O[C@H](CO)[C@@H](O)[C@H]1O	selectivity ratio	=	487
Nc1ncnc2c1c(-c1ccc3ccccc3c1)cn2[C@@H]1O[C@H](CO)[C@@H](O)[C@H]1O	selectivity ratio	=	1.2

* * *

# System: CYP450
# protocolDescription: Drug metabolism in rat liver S9 fraction assessed as CYP450-mediated metabolism by measuring parent compound remaining at 5 uM measured after 60 mins in presence of NADPH by UPLC analysis
# Type: ADME, subcellular
# experimentalConditions: read-out: Stability
readoutType: remaining at 1 h, 5 µM (%)

> print(dat)
                            structuresmiles             readouttype  observedvalue
1  Nc1ncnc2c1c(-c1ccccn1)cn2[C@@H]1O[C@H](CO)[C@@H](O)[C@H]1O  remaining at 1 h, 5 µM             31

* * *

# System: CYP450
# protocolDescription: Drug metabolism in mouse liver S9 fraction assessed as CYP450-mediated metabolism by measuring parent compound remaining at 5 uM measured after 60 mins in presence of NADPH by UPLC analysis
# Type: ADME, subcellular
# experimentalConditions: read-out: Stability
readoutType: remaining at 1 h, 5 µM (%)

> print(dat)
                            structuresmiles  observedvalue
1  Nc1ncnc2c1c(-c1ccccn1)cn2[C@@H]1O[C@H](CO)[C@@H](O)[C@H]1O            1.9

* * *

# Tested on: Trypanosoma brucei rhodesiense
# protocolDescription: Antitrypanosomal activity against Trypanosoma brucei rhodesiense STIB-900 after 48 hrs by alamar blue assay
# Format: functional, organism-based
# experimentalConditions: STIB-900, 48 h
Quick reference: EC50 of the listed items.

structureSmiles	unitDescriptor	EC50
Nc1ncnc2c1c(-c1cccc(Cl)c1)cn2[C@@H]1O[C@H](CO)[C@@H](O)[C@H]1O	µM	6.88
COc1ccnc(-c2cn([C@@H]3O[C@H](CO)[C@@H](O)[C@H]3O)c3ncnc(N)c23)c1	µM	8.15
Nc1ncnc2c1c(-c1ccc(F)cc1)cn2[C@@H]1O[C@H](CO)[C@@H](O)[C@H]1O	µM	14.7
Nc1ncnc2c1c(-c1ccccn1)cn2[C@@H]1O[C@H](CO)[C@@H](O)[C@H]1O	µM	0.031
Nc1ncnc2c1c(-c1cccc(Cl)n1)cn2[C@@H]1O[C@H](CO)[C@@H](O)[C@H]1O	µM	0.62
Cc1ccc(C(=O)Nc2ccc(S(=O)(=O)O)c3cc(S(=O)(=O)O)cc(S(=O)(=O)O)c23)cc1NC(=O)c1cccc(NC(=O)Nc2cccc(C(=O)Nc3cc(C(=O)Nc4ccc(S(=O)(=O)O)c5cc(S(=O)(=O)O)cc(S(=O)(=O)O)c45)ccc3C)c2)c1	µM	0.04
Nc1ncnc2c1c(-c1ccc(F)cn1)cn2[C@@H]1O[C@H](CO)[C@@H](O)[C@H]1O	µM	1.69
Nc1ncnc2c1c(-c1nccc3ccccc13)cn2[C@@H]1O[C@H](CO)[C@@H](O)[C@H]1O	µM	55.6
Nc1ncnc2c1c(-c1ccc3ccccc3c1)cn2[C@@H]1O[C@H](CO)[C@@H](O)[C@H]1O	µM	6.79
Nc1ncnc2c1c(-c1ccc3ccccc3n1)cn2[C@@H]1O[C@H](CO)[C@@H](O)[C@H]1O	µM	3.72
Nc1ncnc2c1c(-c1cc3ccccc3cn1)cn2[C@@H]1O[C@H](CO)[C@@H](O)[C@H]1O	µM	6.16
Nc1ncnc2c1c(-c1cc(Cl)cc(Cl)c1)cn2[C@@H]1O[C@H](CO)[C@@H](O)[C@H]1O	µM	3.66
Nc1ncnc2c1c(-c1ccc(Cl)cn1)cn2[C@@H]1O[C@H](CO)[C@@H](O)[C@H]1O	µM	4.6
Nc1ncnc2c1c(-c1ccccc1)cn2[C@@H]1O[C@H](CO)[C@@H](O)[C@H]1O	µM	4.1
Nc1ncnc2c1c(-c1ccccc1F)cn2[C@@H]1O[C@H](CO)[C@@H](O)[C@H]1O	µM	26.3
Cc1ccnc(-c2cn([C@@H]3O[C@H](CO)[C@@H](O)[C@H]3O)c3ncnc(N)c23)c1	µM	25.1
Nc1ncnc2c1c(-c1ccc(Cl)c(Cl)c1)cn2[C@@H]1O[C@H](CO)[C@@H](O)[C@H]1O	µM	0.32
Nc1ncnc2c1c(-c1cc(Cl)ccn1)cn2[C@@H]1O[C@H](CO)[C@@H](O)[C@H]1O	µM	6.88

From: ChEMBL document CHEMBL4422651
